Value source: patent US12186398B2

protocol: Literature IV PK of FLU solution in rats (Park and Kim; Knihinicki et al)
Assay type: in vivo
condition info: rat, plasma, IV 2.5 mg/kg, Park and Kim data fitted to 2 compartmental model
endpoint name: C0 (ng/mL)
Answers are plain numbers, in ng/mL.

Value of measured C0 for the entry CC(C(=O)O)c1ccc(-c2ccccc2)c(F)c1 (stereo not shown) : 49800

====

protocol: Literature IV PK of FLU solution in rats (Park and Kim; Knihinicki et al)
Type: in vivo
condition info: rat, plasma, IV 2.5 mg/kg, Park and Kim data fitted to 2 compartmental model, read-out: Vss
Source text: The fitted results obtained in the JRF study were then compared to those in the literature, generated after administering a non-micellar low concentration simple FLU solution IV to rats. This was undertaken to determine potential differences in FLU pharmacokinetics induced by the micellar formulation. […]
endpoint name: Vd (L/kg)
Answers are plain numbers, in L/kg.

Value of measured Vd for the entry CC(C(=O)O)c1ccc(-c2ccccc2)c(F)c1 (stereo not shown) : 0.174
